src = patent US11332546B2

# Measured Target: T1, BACE1 (Homo sapiens, UniProt P56817)
# T1 construct: human β-secretase 1 (BACE1, residue 46-457); made in house; host or cells: HEK293F (secreted, protein A purified)
# T1 sequence (P56817 46-457): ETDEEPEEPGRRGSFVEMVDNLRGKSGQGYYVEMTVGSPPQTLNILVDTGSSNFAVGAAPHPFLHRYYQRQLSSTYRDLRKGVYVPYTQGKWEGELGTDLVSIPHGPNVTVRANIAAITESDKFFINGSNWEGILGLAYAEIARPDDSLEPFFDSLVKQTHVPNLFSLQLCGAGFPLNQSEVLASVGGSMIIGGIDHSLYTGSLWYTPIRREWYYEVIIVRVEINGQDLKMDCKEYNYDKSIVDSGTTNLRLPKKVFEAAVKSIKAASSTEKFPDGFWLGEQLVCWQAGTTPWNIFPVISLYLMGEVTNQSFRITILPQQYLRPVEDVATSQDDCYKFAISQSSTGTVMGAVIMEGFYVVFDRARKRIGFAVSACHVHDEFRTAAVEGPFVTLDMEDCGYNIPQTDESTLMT
# Test: FRET peptide inhibition assay, BACE1 (M-2420)
# Type: biochemical
# Conditions Used: Fab; BACE-1, FRET peptide; read-out: Inhibition Potency KI
Measured Ki accompanies every entry in the list below.
Parameter: Ki (nM)

* Fab B2B9: anti-BACE-1 antibody clone; VL SEQ ID NO:96, VH SEQ ID NO:53, CDR-H3 SEQ ID NO:56 (antibody, V domains shown) VH: EVQLVESGGGLVQPGGSLRLSCAASGFNISYSSMHWVRQAPGKGLEWVASIYPSYSYTSYADSVKGRFTISADTSKNTAYLQMNSLRAEDTAVYYCARSSSSYYYGMDYWGQGTLVTVSSAS VL: DIQMTQSPSSLSASVGDRVTITCRASQSVSSAVAWYQQKPGKAPKLLIYSASSLYSGVPSRFSGSRSGTDFTLTISSLQPEDFATYYCQQSSYSLITFGQGTKVEIKR | 120
* Fab B2B5: anti-BACE-1 antibody clone; VL SEQ ID NO:100, VH SEQ ID NO:41, CDR-H3 SEQ ID NO:43 (antibody, V domains shown) VH: EVQLVESGGGLVQPGGSLRLSCAASGFNIYYSYMHWVRQAPGKGLEWVASIYPYYGSTYYADSVKGRFTISADTSKNTAYLQMNSLRAEDTAVYYCARWHGYPPGYSYYSSFSSSGFDYWGQGTLVTVSSAS VL: DIQMTQSPSSLSASVGDRVTITCRASQSVSSAVAWYQQKPGKAPKLLIYSASSLYSGVPSRFSGSRSGTDFTPTISSLQPEDFATYYCQQSYFSYPITFGQGTKVEIKR | 77
* Fab B2B3: anti-BACE-1 antibody clone; VL SEQ ID NO:102, VH SEQ ID NO:50, CDR-H3 SEQ ID NO:52 (antibody, V domains shown) VH: EVQLVESGGGLVQPGGSLRLSCAASGFNISYSSIHWVRQAPGKGLEWVAYISSYSSSTYYADSVKGRFTISADTSKNTAYLQMNSLRAEDTAVYYCARSASGIDYWGQGTLVTVSSAS VL: DIQMTQSPSSLSASVGDRVTITCRASQSVSSAVAWYQQKPGKAPKLLIYSASSLYSGVPSRFSGSRSGTDFTLTISSLQPEDFATYYCQQSGYAPFTFGQGTKVEIKR | 100
* Fab B3B12: anti-BACE-1 antibody clone; VL SEQ ID NO:25, VH SEQ ID NO:29, CDR-H3 SEQ ID NO:32 (antibody, V domains shown) VH: EVQLVESGGGLVQPGGSLRLSCAASGFNIPYSSMHWVRQAPGKGLEWVASISSYSSSTSYADSVKGRFTISADTSKNTAYLQMNSLRAEDTAVYYCARYICGHRWRDFDMWRARTGVNYAMDYWGQGTLVTVSSAS VL: DIQMTQSPSSLSASVGDRVTITCRASQSVGTYLNWYQQKPGKAPKLLIYATSNLRSGVPSRFSGSGSGTDFTLTISSLQPEDFATYYCQQSYSIPRFTFGPGTKLEIKR | 23
